Molecular target: human ether-à-go-go-related gene (hERG) potassium channel (human, UniProt Q12809);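 further: peak tail current of the secondary pulse compared with the same well before compound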
Sequence (Q12809 whole entry, looked up): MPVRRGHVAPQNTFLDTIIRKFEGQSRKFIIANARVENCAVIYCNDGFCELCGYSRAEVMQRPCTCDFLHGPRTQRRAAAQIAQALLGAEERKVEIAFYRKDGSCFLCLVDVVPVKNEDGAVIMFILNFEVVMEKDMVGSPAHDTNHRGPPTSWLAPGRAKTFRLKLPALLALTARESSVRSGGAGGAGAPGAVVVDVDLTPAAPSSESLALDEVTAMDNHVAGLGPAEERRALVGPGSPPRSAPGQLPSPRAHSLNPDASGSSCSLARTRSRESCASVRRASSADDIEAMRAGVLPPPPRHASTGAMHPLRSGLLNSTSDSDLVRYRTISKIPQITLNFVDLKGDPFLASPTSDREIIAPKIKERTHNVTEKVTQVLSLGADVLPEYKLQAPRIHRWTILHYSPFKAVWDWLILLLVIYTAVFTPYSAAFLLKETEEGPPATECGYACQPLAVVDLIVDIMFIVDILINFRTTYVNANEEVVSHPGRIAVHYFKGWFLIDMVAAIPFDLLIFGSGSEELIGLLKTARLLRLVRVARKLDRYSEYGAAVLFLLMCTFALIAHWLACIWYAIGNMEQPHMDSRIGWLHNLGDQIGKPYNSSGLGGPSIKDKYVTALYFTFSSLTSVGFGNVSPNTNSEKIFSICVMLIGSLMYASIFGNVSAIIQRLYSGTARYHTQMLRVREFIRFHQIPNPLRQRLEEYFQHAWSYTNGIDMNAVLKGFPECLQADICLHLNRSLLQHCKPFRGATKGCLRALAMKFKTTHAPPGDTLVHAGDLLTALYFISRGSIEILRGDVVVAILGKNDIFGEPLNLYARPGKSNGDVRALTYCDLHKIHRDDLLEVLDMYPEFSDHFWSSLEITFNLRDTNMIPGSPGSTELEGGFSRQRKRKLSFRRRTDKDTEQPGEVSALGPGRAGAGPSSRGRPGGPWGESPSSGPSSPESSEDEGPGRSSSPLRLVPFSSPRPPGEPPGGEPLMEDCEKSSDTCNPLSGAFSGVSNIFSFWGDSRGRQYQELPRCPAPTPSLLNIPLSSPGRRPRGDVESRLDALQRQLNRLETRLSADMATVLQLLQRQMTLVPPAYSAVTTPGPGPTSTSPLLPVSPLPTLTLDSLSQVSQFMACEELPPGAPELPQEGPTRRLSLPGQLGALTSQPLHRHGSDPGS
Test: primary screen, population patch clamp on CHO cells stably expressing hERG; higher = less effect of the substance
Protocol: Briefly, Chinese hamster ovary (CHO) cells stably expressing the hERG channel were dislodged from tissue culture flasks and dispensed into PPC plates. […] During the recording, background leak currents were estimated by a 100 ms step to -80 mV from an initial holding potential of -70 mV and subtracted from the subsequent current measurement. The campaign was conducted in two phases using slight differences in recording protocol. […]
Hit rate of the full screen: of about 310,000 compounds, about 14,000 (4.5%) showed an effect of 50% or more. The effect is printed as a negative number. The sample holds strong results, similar compounds and a random draw of the others, so the mix is not that of the screen.
assay readout: hERG current change (%, negative = inhibition) at 10uM (%)
Give the number; % is assumed, so skip it.

The cases that follow already have their hERG current change (%, negative = inhibition) at 10uM on record.
[
  {
    "compound": "CCN(CC)CC(O)Cn1c(-c2ccccc2Cl)nc2ccccc21 (stereo not shown)",
    "assay system": "human ether-à-go-go-related gene (hERG) potassium channel (human, UniProt Q12809)",
    "value observed": -25.2
  },
  {
    "compound": "O=C(O)c1ccc(Cl)c(NC(=S)NC(=O)c2cccc(COc3ccccc3)c2)c1",
    "assay system": "human ether-à-go-go-related gene (hERG) potassium channel (human, UniProt Q12809)",
    "value observed": 30.4
  },
  {
    "compound": "COc1ccc(C(CCN2CCCC2)c2c(O)cc(OC)cc2OC)cc1 (stereo not shown)",
    "assay system": "human ether-à-go-go-related gene (hERG) potassium channel (human, UniProt Q12809)",
    "value observed": -61.2
  }
]

Given item `Cc1cc(C)nc(/N=C(\N)Nc2ccc(C(C)C)cc2)n1` , the value recorded as its hERG current change (%, negative = inhibition) at 10uM is -67.5

Measured hERG current change (%, negative = inhibition) at 10uM, `CCCCc1ccc(N/C(N)=N/c2nc(C)cc(C)n2)cc1` : -70.1

Measured hERG current change (%, negative = inhibition) at 10uM of COc1ccc(C)cc1NC(=O)C1CCCN1S(=O)(=O)c1ccc2c(c1)CCC(=O)N2 (stereo not shown) : -50.8

Summary for this compound, CC1CCC/C(=C\Nc2ccc(O)cc2)C1=O (stereo not shown) : hERG current change (%, negative = inhibition) at 10uM is -0.0111
